Where do these numbers come from? They come from PubChem BioAssay (NCI).

We begin with a simple list: items and their reported growth.
tested on: HCT-15 colon; test: NCI-60 one-dose screen, 48 h (100 = growth as untreated, 0 = no growth, -100 = all killed); details: 10 µM
Compounds without any hit were thinned out: in the full panel of roughly 83,000, 20% have a hit.
Kindly provide the numeric value in % only, without the unit symbol.

The cases that follow already have their growth on record.
{"Compound": "C#CC1(O)CCC2(C)C(CCC3C4CCC(=O)C4(C)CCC32)C1 (stereo not given)", "growth / %": 97.5}
{"Compound": "CC(=O)Oc1ccc(Cl)cc1", "growth / %": 95.1}
{"Compound": "C=CCc1ccc(OC(=O)Cc2ccccc2)c(OC)c1", "growth / %": 103}
{"Compound": "O=C1NC(=O)C(CN2C(=O)C3(c4ccccc42)[C@H](Cl)C(=O)N3c2ccccc2)C(=O)N1 (stereo not given in full)", "growth / %": 94.7}

# input compound: "O=[N+]([O-])c1ccc2cnn(CSP(=S)(c3ccccc3)c3ccccc3)c2c1" ; wanted: its growth
48.1

# input compound: COc1cc(C2CC(=O)Nc3nc(N)[se]c32)c(OC)c2c1OCO2 (stereo not given) ; wanted: its growth
101

# input compound: "CNC(=O)Oc1ccccc1-c1ccccc1" ; wanted: its growth
106

# input compound: "O=C(N/N=C/c1ccc([N+](=O)[O-])o1)c1cc([N+](=O)[O-])cc([N+](=O)[O-])c1O" ; wanted: its growth
93.3

# input compound: CNc1ccc(C(=O)CC(O)CCC(C)C2OC(=O)CC(O)CC(=O)CC(O)CC(O)CC(O)CC(O)CC3(O)CC(O)C(C(=O)OC)C(CC(O[C@@H]4O[C@H](C)[C@@H](O)[C@H](N)[C@@H]4O)/C=C/C=C/C=C/C=C/C=C/C=C/C=C/C2C)O3)cc1 (stereo not given in full) ; wanted: its growth
41.8

# input compound: COc1ccc(C2SCC(=O)Nc3c2c(C)nn3-c2nc3ccc(C)cc3s2)cc1O (stereo not given) ; wanted: its growth
23.9

* * *

system: OVCAR-4 ovarian; test: NCI-60 one-dose screen, 48 h; settings: 10 µM unless noted
Compounds without any hit were thinned out: in the full panel of roughly 83,000, 20% have a hit. Active and inactive are the calls of the source. How the source made its calls: active means growth percent below 10; inactive means the rest.
Returns: one label drawn from 1 (active), -1 (inactive)

{"Compound": "Nc1ccc(N)c2c1Oc1ccccc1O2", "Answer label": -1}

What classification did CC12CCC(=O)C=C1CCC1C2CCC2(C)C(C(=O)COC(=O)Cc3ccc(N(CCCl)CCCl)cc3)CCC12 (centres undefined) end up with in this test?
-1

What classification did "[Cl][Hg][n]1cnc2c(Cl)c(Cl)c(Cl)cc21" end up with in this test?
-1

What classification did "CC(=O)Oc1ccc(Cl)cc1" end up with in this test?
-1

What classification did "CC(C)[C@]12O[C@H]1[C@@H]1O[C@]13[C@]1(O[C@H]1C[C@H]1C4=C(CC[C@@]13C)C(=O)OC4)[C@@H]2OC(=O)OC(C)(C)C" end up with in this test?
-1

What classification did N#C[Se]CCN1C(=O)C2C(C1=O)[C@H]1C=C[C@@H]2S1 (some centres undefined) end up with in this test?
-1

What classification did COc1ccc(C2=NN(c3ccccc3)C(c3sc(N(CCCl)CCCl)nc3Cl)C2)cc1 (centres undefined) end up with in this test?
-1

What classification did CCCCCN(CCCCC)CC(O)c1ccc(C)c(Cl)c1 (centres undefined) end up with in this test?
-1

What classification did "CCCC(C)(C)c1ccc2c(c1)OC(C)(C)[C@@H]1CC=C(C)C[C@@H]21" end up with in this test?
-1

What classification did OC1(c2ccccc2F)c2ccccc2C2=NCCN21 (centres undefined) end up with in this test?
-1

What classification did "O=C(CCl)NCNC(=O)CCl" end up with in this test?
-1

What classification did "C/C(=N/OC(=O)N(C)C)c1cc(Cl)ccc1Cl" end up with in this test?
-1

What classification did "S=P(N1CCCCCC1)(N1CC1)N1CC1" end up with in this test?
-1

What classification did CCC1([N+](=O)[O-])COP(=O)(NCc2cccnc2)OC1 (centres undefined) end up with in this test?
-1

What classification did "CC(=O)Nc1ccc(Cc2ccc(NC(C)=O)cc2)cc1" end up with in this test?
-1

What classification did COc1c(O)c2c3c(c1OC)-c1ccccc1CC3N(C)CC2 (centres undefined) end up with in this test?
-1

What classification did "CCCCn1cc(C(=O)/C(C#N)=C/c2cc3ccccc3nc2Cl)c2cc(OC)ccc21" end up with in this test?
-1

What classification did Cc1ccc2oc(=O)c3c(c2c1)OC(N)=C(C#N)C3c1ccco1 (centres undefined) end up with in this test?
-1

What classification did CCCCCCCCCCOc1ccc(C(=O)Oc2ccc(CSP3(=O)OCC4OC(n5ccc(=O)[nH]c5=O)C(F)C4OP(=O)(O)OCC4OC(n5cnc6c(N)ncnc65)C(F)C4O3)cc2)cc1 (centres undefined) end up with in this test?
-1

What classification did "CC1(C)N=C(N)N=C(N)N1c1ccc(CCCCc2ccc(S(=O)(=O)F)cc2)cc1" end up with in this test?
-1

What classification did "CCN(CC)CCOc1c(C(C)C)cccc1C(C)C" end up with in this test?
-1

What classification did "C=CCc1ccc(OC(=O)Cc2ccccc2)c(OC)c1" end up with in this test?
-1

What classification did "COC[CH2][Hg][C]#[C][Hg][CH2]COC" end up with in this test?
-1

What classification did "[O]=[Sn]([CH]1CCCCC1)[CH]1CCCCC1" end up with in this test?
1

What classification did C#CC1(O)CCC2(C)C(CCC3C4CCC(=O)C4(C)CCC32)C1 (centres undefined) end up with in this test?
-1

* * *

We begin with a simple list: items and their reported growth.
test system: SN12C renal; test: NCI-60 one-dose screen, 48 h (100 = growth as untreated, 0 = no growth, -100 = all killed); conditions: 10 µM unless noted
Compounds without any hit were thinned out: in the full panel of roughly 83,000, 20% have a hit.
Kindly provide the numeric value in % only, without the unit symbol.

# input compound: "O=C(Nc1ccc(S(=O)(=O)F)cc1)Oc1ccccc1" ; wanted: its growth
104

* * *

We begin with a simple list: items and their reported growth.
system: HL-60(TB) leukemia; experiment: NCI-60 one-dose screen, 48 h (100 = growth as untreated, 0 = no growth, -100 = all killed); conditions: 10 µM unless noted
About 83,000 compounds went through this panel and 20% of them were active in at least one assay; those are over-represented in the sample as a whole. The source made the active and inactive calls. Rule for the calls: active = growth percent below 10; inactive = the rest.

The cases that follow already have their growth on record.
{"Compound": "O=c1[nH]c2ccccc2n2cc3cccnc3c12", "Measurement target": "HL-60(TB) leukemia", "growth": "87.5% (inactive)"}
{"Compound": "C=C1/C(=C\\C=C2/CCC[C@]3(C)[C@@H]([C@H](C)CCCC(C)(C)O)CC[C@@H]23)C[C@@H](OC(=O)CBr)C[C@@H]1O", "Measurement target": "HL-60(TB) leukemia", "growth": "-59.4% (active)"}
{"Compound": "CC(=O)O[C@@H]1/C=C/C(=O)N[C@@H](C)CCC/C=C/[C@@H]2CCC[C@H]21", "Measurement target": "HL-60(TB) leukemia", "growth": "99.8% (inactive)"}

Requested read-out growth, target or system HL-60(TB) leukemia, entry "CC(C)CCC[C@@H](C)[C@H]1CC[C@H]2[C@@H]3CC=C4N(c5ccccc5)C(=O)CC[C@]4(C)[C@H]3CC[C@]12C"
90.9% (inactive)

Requested read-out growth, target or system HL-60(TB) leukemia, entry "O=C(Nc1ccc(Cl)cc1F)c1cc(I)ccc1O"
19.9% (inactive)

Requested read-out growth, target or system HL-60(TB) leukemia, entry "C#Cc1cccc(Nc2nc(C)nc3cc(NC(=O)CCl)ccc23)c1"
-58% (active)

Requested read-out growth, target or system HL-60(TB) leukemia, entry "CCN(CC)CCNC(=O)n1cc(-c2ccncc2)c(-c2ccc(Cl)c(OC)c2)n1"
95.9% (inactive)

Requested read-out growth, target or system HL-60(TB) leukemia, entry "CN1CCN(C(=O)[C@@]2(C)CC[C@]3(C)CC[C@]4(C)C(=CC[C@@H]5[C@@]6(C)C/C(=C/c7ccncc7)C(=O)C(C)(C)[C@@H]6CC[C@]54C)[C@@H]3C2)CC1"
-8.87% (active)

Requested read-out growth, target or system HL-60(TB) leukemia, entry "CC(C)(C)OC(=O)N1C/C(=C\c2ccccc2)C(=O)/C(=C/c2ccccc2)C1"
99.6% (inactive)

* * *

tested on: MDA-MB-231 breast; experiment: NCI-60 one-dose screen, 48 h (100 = growth as untreated, 0 = no growth, -100 = all killed); conditions: 10 µM unless noted
Compounds without any hit were thinned out: in the full panel of roughly 83,000, 20% have a hit.
Measurement name: growth (%)
Kindly provide the numeric value in % only, without the unit symbol.

{"Compound": "CC(=O)N(C)C1=Nc2ccc(Cl)cc2C(c2ccccc2)=[N+]([O-])C1", "growth, %": 109}
{"Compound": "Cn1cnnc1[S-].[Au+].c1ccc([PH+](c2ccccc2)c2ccccc2)cc1", "growth, %": 30.3}
{"Compound": "CN1CCN(C(=O)COc2ccc(/C=C3\\CC4C5CC=C6CC(Cl)CCC6(C)C5CCC4(C)C3=O)cc2)CC1 (stereo not given)", "growth, %": 75.2}

# input compound: O=C(CC1(O)C(=O)Nc2ccc(F)cc21)c1ccc(C(=O)NCC2CCC3(CC2)OOC2(CCCCC2)OO3)cc1 (stereo not given) ; wanted: its growth
41.5

# input compound: CCCCN(CCCC)CC(O)c1ccccc1 (stereo not given) ; wanted: its growth
104

# input compound: C[C@@H]1O[C@@H](O[C@H]2CC[C@@]3(C)[C@H](CCC4[C@@H]3C(O)C[C@]3(C)[C@@H](c5ccc(=O)oc5)CC[C@]43O)C2)[C@H](O)[C@H](O)[C@H]1O (stereo not given in full) ; wanted: its growth
-63.7

# input compound: "C/C1=C/C(=O)O[C@@H]2C[C@@H](CC[C@H](C)/C=C\C=C\CC1)O[C@@](OCCc1ccccc1)([C@@H]1CSC(=O)N1)C2" ; wanted: its growth
11.8

# input compound: "O=C(Nc1ccc(S(=O)(=O)F)cc1)Oc1ccccc1" ; wanted: its growth
104

# input compound: "CC1(C)CC(=O)CC(C)(C)N1N=O" ; wanted: its growth
109

# input compound: "O=C(N/N=C/c1ccc([N+](=O)[O-])o1)c1cc([N+](=O)[O-])cc([N+](=O)[O-])c1O" ; wanted: its growth
93.5

# input compound: "CC(C)(NC(=O)c1nn(CCCCCF)c2ccccc12)c1ccccc1" ; wanted: its growth
98.1

# input compound: "COC(=O)C[Se]C(=O)c1ccccc1OC(C)=O" ; wanted: its growth
71.3

# input compound: "COc1ccccc1N1CCN(CCc2c[nH]c3cc4c(cc23)OCO4)CC1" ; wanted: its growth
79.8

# input compound: "O=C1NC(=S)NC(=O)C1=Cc1ccccc1" ; wanted: its growth
104

# input compound: CNC(C)Cc1ccccc1 (stereo not given) (tested in a mixture with another compound) ; wanted: its growth
120

# input compound: "CC1(C)N=C(N)N=C(N)N1c1ccc(CCCCc2ccc(S(=O)(=O)F)cc2)cc1" ; wanted: its growth
46.7

# input compound: "N#Cc1ncc(/N=C/c2ccc(N(CCCl)CCCl)cc2)s1" ; wanted: its growth
94.5

# input compound: ClCCN(CCCl)C(c1ccccc1)c1ccc(Cl)cc1 (stereo not given) ; wanted: its growth
75.7

# input compound: c1ccc(CCN2CCCCC2Cc2ccccc2)cc1 (stereo not given) ; wanted: its growth
96.4

# input compound: "CN(C)P1(N(C)C)=NP(N(C)C)(N(C)C)=NP(N(C)C)(N(C)C)=N1" ; wanted: its growth
107

# input compound: "Oc1ccc(Br)cc1CN1CCN(Cc2ccc(Cl)cc2)CC1" ; wanted: its growth
49.2

# input compound: CC1(CF)NC(=O)NC1=O (stereo not given) ; wanted: its growth
99.1

# input compound: "O=C(/C=C/c1ccccc1)N[C@@H](CO)Cc1cnc[nH]1" ; wanted: its growth
98.9

# input compound: "CCN(CC)CCOc1c(C(C)C)cccc1C(C)C" ; wanted: its growth
109

# input compound: "CC(C)Nc1ccc(Nc2ccccc2)cc1" ; wanted: its growth
25.5
